- PROTOCOL_SUMMARY: Therapeutic index, ratio of TD50 for HFF cells to IC50 for Toxoplasma gondii F2
- Assay type: cell-based
- CONDITION_NOTES: human, read-out: TI
selectivity ratio strictly under 1000 means label 1; at 1000 or over means label 0.

Take a look at these entries with their results.
[[record]]
chem_smiles = "CC1=C(C(=O)NCc2cc(F)cc(F)c2)O[C@@H]2O[C@@]3(C)CC[C@H]4[C@H](C)CC[C@@H]1[C@@]24OO3"
assigned_label = "label 0"

[[record]]
chem_smiles = "CC1=C(C(=O)NCc2ccc(F)cc2)O[C@@H]2O[C@@]3(C)CC[C@H]4[C@H](C)CC[C@@H]1[C@@]24OO3"
assigned_label = "label 1"

[[record]]
chem_smiles = "CNC(=O)C1=C(C)[C@@H]2CC[C@@H](C)[C@@H]3CC[C@@]4(C)OO[C@@]23[C@H](O1)O4"
assigned_label = "label 1"

[[record]]
chem_smiles = "COc1ccc(-c2csc(C3=C(C)[C@@H]4CC[C@@H](C)[C@@H]5CC[C@@]6(C)OO[C@@]45[C@H](O3)O6)n2)cc1"
assigned_label = "label 1"

[[record]]
chem_smiles = "CC1=C(c2nccs2)O[C@@H]2O[C@@]3(C)CC[C@H]4[C@H](C)CC[C@@H]1[C@@]24OO3"
assigned_label = "label 1"


Inquiry: Find out if reported selectivity ratio for CC1=C(c2nc(C(C)(C)C)cs2)O[C@@H]2O[C@@]3(C)CC[C@H]4[C@H](C)CC[C@@H]1[C@@]24OO3 is less than 1000
Reply text: label 0

Inquiry: Let us now turn to CC1=C(c2nc(-c3ccccc3)cs2)O[C@@H]2O[C@@]3(C)CC[C@H]4[C@H](C)CC[C@@H]1[C@@]24OO3
Reply text: label 0

Inquiry: Let us now turn to CC1=C(c2nc(C)no2)O[C@@H]2O[C@@]3(C)CC[C@H]4[C@H](C)CC[C@@H]1[C@@]24OO3
Reply text: label 1

Inquiry: Let us now turn to CO[C@H]1O[C@@H]2O[C@@]3(C)CC[C@H]4[C@H](C)CC[C@@H]([C@H]1C)[C@@]24OO3
Reply text: label 0

Inquiry: Let us now turn to CC1=C(c2nc(C3CCCCC3)cs2)O[C@@H]2O[C@@]3(C)CC[C@H]4[C@H](C)CC[C@@H]1[C@@]24OO3
Reply text: label 1

###

Listing: selectivity ratio of selected compounds
- PROTOCOL_SUMMARY: Therapeutic index, ratio of TD50 for HFF cells to IC50 for Toxoplasma gondii F2
- Type: cell-based
- CONDITION_NOTES: human, read-out: TI
A bare number is all that is needed in reply.

[[record]]
chem_smiles = "CCc1csc(C2=C(C)[C@@H]3CC[C@@H](C)[C@@H]4CC[C@@]5(C)OO[C@@]34[C@H](O2)O5)n1"
attribute_measured = "selectivity ratio"
recorded_measurement = 1410

[[record]]
chem_smiles = "CC1=C(C(=O)NCc2ccc(F)c(F)c2)O[C@@H]2O[C@@]3(C)CC[C@H]4[C@H](C)CC[C@@H]1[C@@]24OO3"
attribute_measured = "selectivity ratio"
recorded_measurement = 166

[[record]]
chem_smiles = "CC1=C(C(=O)NCc2ccccc2)O[C@@H]2O[C@@]3(C)CC[C@H]4[C@H](C)CC[C@@H]1[C@@]24OO3"
attribute_measured = "selectivity ratio"
recorded_measurement = 839

[[record]]
chem_smiles = "CC1=C(c2nc(C)cs2)O[C@@H]2O[C@@]3(C)CC[C@H]4[C@H](C)CC[C@@H]1[C@@]24OO3"
attribute_measured = "selectivity ratio"
recorded_measurement = 1410

[[record]]
chem_smiles = "CC1=C(c2nc(-c3ccc(C)cc3)cs2)O[C@@H]2O[C@@]3(C)CC[C@H]4[C@H](C)CC[C@@H]1[C@@]24OO3"
attribute_measured = "selectivity ratio"
recorded_measurement = 1610

[[record]]
chem_smiles = "CC1=C(c2nc(C)c(C)s2)O[C@@H]2O[C@@]3(C)CC[C@H]4[C@H](C)CC[C@@H]1[C@@]24OO3"
attribute_measured = "selectivity ratio"
recorded_measurement = 240

[[record]]
chem_smiles = "CCN(CC)C(=O)C1=C(C)[C@@H]2CC[C@@H](C)[C@@H]3CC[C@@]4(C)OO[C@@]23[C@H](O1)O4"
attribute_measured = "selectivity ratio"
recorded_measurement = 2.1

[[record]]
chem_smiles = "CC1=C(c2nc(-c3ccccc3)no2)O[C@@H]2O[C@@]3(C)CC[C@H]4[C@H](C)CC[C@@H]1[C@@]24OO3"
attribute_measured = "selectivity ratio"
recorded_measurement = 320


Inquiry: So what's the measured selectivity ratio for this one? C[C@@H]1CC[C@H]2[C@@H](C)C(=O)O[C@@H]3O[C@@]4(C)CC[C@@H]1[C@]32OO4
Reply text: 879

Inquiry: Let us now turn to CSc1ccc(-c2csc(C3=C(C)[C@@H]4CC[C@@H](C)[C@@H]5CC[C@@]6(C)OO[C@@]45[C@H](O3)O6)n2)cc1
Reply text: 1410
